Value source: the supplement of paper PMC10307832

Test system: NCI-H1563
EXPERIMENT: relative viability (nuclei count vs DMSO), 5 days (fraction); higher = more cells survive
ASSAY CONDITIONS: first compound 2.53 µM
RECORDED ENDPOINT: relative viability

molecule="Cc1cnc(-c2cnc(NCCNc3ccc(C#N)cn3)nc2-c2ccc(Cl)cc2Cl)[nH]1 + C[C@@H](Oc1cc(-c2cnn(C3CCNCC3)c2)cnc1N)c1c(Cl)ccc(F)c1Cl [Crizotinib] (partner 1 µM)" recorded_endpoint="relative viability" result=0.903
molecule="O=c1[nH]c2ccccc2n1C1CCN(CCCC(c2ccc(F)cc2)c2ccc(F)cc2)CC1 [Pimozide] + C[C@@H](Oc1cc(-c2cnn(C3CCNCC3)c2)cnc1N)c1c(Cl)ccc(F)c1Cl [Crizotinib] (partner 1 µM)" recorded_endpoint="relative viability" result=0.775
molecule="Cc1cnc(-c2cnc(NCCNc3ccc(C#N)cn3)nc2-c2ccc(Cl)cc2Cl)[nH]1 + CS(=O)(=O)N1CCN(Cc2cc3nc(-c4cccc5[nH]ncc45)nc(N4CCOCC4)c3s2)CC1 [Pictilisib] (partner 1 µM)" recorded_endpoint="relative viability" result=0.725
molecule="Cc1cnc(-c2cnc(NCCNc3ccc(C#N)cn3)nc2-c2ccc(Cl)cc2Cl)[nH]1 + CCNC(=O)c1noc(-c2cc(C(C)C)c(O)cc2O)c1-c1ccc(CN2CCOCC2)cc1 [Luminespib] (partner 0.01 µM)" recorded_endpoint="relative viability" result=0.439
molecule="O=c1[nH]c2ccccc2n1C1CCN(CCCC(c2ccc(F)cc2)c2ccc(F)cc2)CC1 [Pimozide] + Cc1nc(Nc2ncc(C(=O)Nc3c(C)cccc3Cl)s2)cc(N2CCN(CCO)CC2)n1 [Dasatinib] (partner 0.075 µM)" recorded_endpoint="relative viability" result=0.426

Continue with the next molecule.
Record O=c1[nH]c2ccccc2n1C1CCN(CCCC(c2ccc(F)cc2)c2ccc(F)cc2)CC1 [Pimozide] + CC(C)C[C@H](NC(=O)[C@H](Cc1ccccc1)NC(=O)c1cnccn1)B(O)O [Bortezomib] (partner 0.002 µM) , field relative viability: 0.67

---

Test system: ABC-1
EXPERIMENT: relative viability (nuclei count vs DMSO), 5 days (fraction); higher = more cells survive
ASSAY CONDITIONS: first compound 0.8 µM
RECORDED ENDPOINT: relative viability
One number for each entry.

Some entries whose results are on file:
compound="O=c1[nH]c2ccccc2n1C1CCN(CCCC(c2ccc(F)cc2)c2ccc(F)cc2)CC1 [Pimozide] + CS(=O)(=O)CCNCc1ccc(-c2ccc3ncnc(Nc4ccc(OCc5cccc(F)c5)c(Cl)c4)c3c2)o1 [Lapatinib] (partner 2 µM)" result=1.13
compound="O=c1[nH]c2ccccc2n1C1CCN(CCCC(c2ccc(F)cc2)c2ccc(F)cc2)CC1 [Pimozide] + COc1cccc2cc(-c3nc([C@H]4CC[C@H](C(=O)O)CC4)n4ncnc(N)c34)[nH]c12 [OSI-027] (partner 0.5 µM)" result=0.422
compound="O=c1[nH]c2ccccc2n1C1CCN(CCCC(c2ccc(F)cc2)c2ccc(F)cc2)CC1 [Pimozide] + CC(C)C[C@H](NC(=O)[C@H](Cc1ccccc1)NC(=O)c1cnccn1)B(O)O [Bortezomib] (partner 0.002 µM)" result=0.34
compound="Cc1cnc(-c2cnc(NCCNc3ccc(C#N)cn3)nc2-c2ccc(Cl)cc2Cl)[nH]1 + C[C@]1(O)C[C@@H](c2nc(-c3ccc4ccc(-c5ccccc5)nc4c3)c3c(N)nccn32)C1 [Linsitinib] (partner 1 µM)" result=0.839

Continue with the next compound.
Record O=c1[nH]c2ccccc2n1C1CCN(CCCC(c2ccc(F)cc2)c2ccc(F)cc2)CC1 [Pimozide] + C[C@]1(O)C[C@@H](c2nc(-c3ccc4ccc(-c5ccccc5)nc4c3)c3c(N)nccn32)C1 [Linsitinib] (partner 1 µM) , field relative viability: 0.788
